Some molecules, each annotated with its measured relative viability.
System: NCI-H2405
Assay: relative viability (nuclei count vs DMSO), 5 days (fraction); higher = more cells survive
Conditions: first compound 2.53 µM
endpoint.name: relative viability

>>> value_measured("Cc1cnc(-c2cnc(NCCNc3ccc(C#N)cn3)nc2-c2ccc(Cl)cc2Cl)[nH]1 + Cc1nc(NC(=O)N2CCC[C@H]2C(N)=O)sc1-c1ccnc(C(C)(C)C(F)(F)F)c1 [Alpelisib] (partner 2 µM)")
0.592
>>> value_measured("Cc1cnc(-c2cnc(NCCNc3ccc(C#N)cn3)nc2-c2ccc(Cl)cc2Cl)[nH]1 + COc1cccc2cc(-c3nc([C@H]4CC[C@H](C(=O)O)CC4)n4ncnc(N)c34)[nH]c12 [OSI-027] (partner 0.5 µM)")
0.615
>>> value_measured("Cc1cnc(-c2cnc(NCCNc3ccc(C#N)cn3)nc2-c2ccc(Cl)cc2Cl)[nH]1 + CCNC(=O)c1noc(-c2cc(C(C)C)c(O)cc2O)c1-c1ccc(CN2CCOCC2)cc1 [Luminespib] (partner 0.01 µM)")
0.574
>>> value_measured("O=c1[nH]c2ccccc2n1C1CCN(CCCC(c2ccc(F)cc2)c2ccc(F)cc2)CC1 [Pimozide] + CS(=O)(=O)CCNCc1ccc(-c2ccc3ncnc(Nc4ccc(OCc5cccc(F)c5)c(Cl)c4)c3c2)o1 [Lapatinib] (partner 2 µM)")
1.04
